Target or system Acetylcholinesterase (Electrophorus electricus, UniProt O42275): recorded IC50 listed per item.
# unit: nM | format: bare number

molecule="CCOC(=O)C1=C(C)Oc2nc3c(c(N)c2C1c1cc2ccc(OC)cc2nc1Cl)CCCC3 (centres undefined)" measured_value=1520
molecule="COC(=O)C1=C(C)Oc2nc3c(c(N)c2C1c1cc2ccc(OC)cc2nc1Cl)CCCC3 (centres undefined)" measured_value=470

Ask | Please tell me the measured IC50 for CCOC(=O)C1=C(C)Oc2nc3c(c(N)c2C1c1cc2ccccc2nc1Cl)CCCC3 (centres undefined) ; system: Acetylcholinesterase (Electrophorus electricus, UniProt O42275).
Reply | 480

Ask | Please tell me the measured IC50 for CCOC(=O)C1=C(C)Oc2nc3c(c(N)c2C1c1cc2cccc(OC)c2nc1Cl)CCCC3 (centres undefined) ; system: Acetylcholinesterase (Electrophorus electricus, UniProt O42275).
Reply | 610

Ask | Please tell me the measured IC50 for CCOC(=O)C1=C(C)Oc2nc3c(c(N)c2C1c1cc2cc(C)ccc2nc1Cl)CCCC3 (centres undefined) ; system: Acetylcholinesterase (Electrophorus electricus, UniProt O42275).
Reply | 540

Ask | Please tell me the measured IC50 for COc1ccc2cc(C3C4=C(CC(C)(C)CC4=O)Oc4nc5c(c(N)c43)CCC5)c(Cl)nc2c1 (centres undefined) ; system: Acetylcholinesterase (Electrophorus electricus, UniProt O42275).
Reply | 580

* * *

Here, each record is paired with measured pEC50 data.
assay: in vitro; conditions: human, HepG2 cells
Description: Hepatotoxicity in human HepG2 cells assessed as reduction in cell viability by MTT assay
pEC50 is a log-scale quantity: -log10 of the concentration expressed in molar.

Some molecules with known pEC50 results, for comparison:
molecule="CCOC(=O)C1=C(C)Oc2nc3c(c(N)c2C1c1cc2cc(C)ccc2nc1Cl)CCCC3 (stereo not given)" measured_value=3.89
molecule="COC(=O)C1=C(C)Oc2nc3c(c(N)c2C1c1cc2ccc(OC)cc2nc1Cl)CCCCC3 (stereo not given)" measured_value=3.13
molecule="CCOC(=O)C1=C(C)Oc2nc3c(c(N)c2C1c1cc2cc(OC)ccc2nc1Cl)CCCC3 (stereo not given)" measured_value=4.14
molecule="CCOC(=O)C1=C(C)Oc2nc3c(c(N)c2C1c1cc2ccc(OC)cc2nc1Cl)CCCC3 (stereo not given)" measured_value=3.03

Ask | Consider the molecule COc1ccc2cc(C3C4=C(CC(C)(C)CC4=O)Oc4nc5c(c(N)c43)CCCCC5)c(Cl)nc2c1 (stereo not given) and give its recorded pEC50.
Reply | 3.48

* * *

assay: in vitro; details: human, SH-SY5Y cells
Description: Neurotoxicity in human SH-SY5Y cells assessed as cell viability at 0.1 uM after 24 hrs by XTT assay relative to control
Here, each record is paired with measured viability at 24 h, 0.1 µM data.
# unit: % | format: bare number

compound="COC(=O)C1=C(C)Oc2nc3c(c(N)c2C1c1cc2ccc(OC)cc2nc1Cl)CCC3 (stereo not given)" measured_value=104

// next item, viability at 24 h, 0.1 µM requested
Ask | Consider the compound CCOC(=O)C1=C(C)Oc2nc3c(c(N)c2C1c1cc2cccc(OC)c2nc1Cl)CCCC3 (stereo not given) and give its recorded viability at 24 h, 0.1 µM.
Reply | 107

* * *

Here, each record is paired with measured pEC50 data.
system: HepG2
pEC50 is a log-scale quantity: -log10 of the concentration expressed in molar.

compound="CCOC(=O)C1=C(C)Oc2nc3c(c(N)c2C1c1cc2cccc(OC)c2nc1Cl)CCCC3 (stereo not drawn)" assay_readout=pEC50 measured_value=2.97
compound="COc1ccc2cc(C3C4=C(CC(C)(C)CC4=O)Oc4nc5c(c(N)c43)CCC5)c(Cl)nc2c1 (stereo not drawn)" assay_readout=pEC50 measured_value=2.72

// next item, pEC50 requested
Ask | Consider the compound CCOC(=O)C1=C(C)Oc2nc3c(c(N)c2C1c1cc2ccccc2nc1Cl)CCCC3 (stereo not drawn) and give its recorded pEC50.
Reply | 2.32
